TEST_PROTOCOL: Selectivity index, ratio of cytotoxicity against human SK-MEL cells to IC50 for Cryptococcus neoformans ATCC 90113
Format: toxicity, cell-based
CONDITION_PARAMETERS: read-out: Selectivity Index
So I've got a bunch of compounds here, and I need their selectivity ratio values.

Task: Find the recorded selectivity ratio belonging to CC(C)(C)OC(=O)N[C@@H](Cc1c[nH]c(-c2cccc3ccccc23)n1)C(=O)N[C@@H](CCCNC(=N)N)C(=O)NCc1ccccc1 and report it.
Output: > 3.6

Task: Here is the next compound: CC(C)(C)OC(=O)N[C@@H](Cc1c[nH]c(-c2ccccc2)n1)C(=O)N[C@@H](CCCNC(=N)N)C(=O)NCc1ccccc1
Output: > 3.9

Task: Here is the next compound: COC(=O)[C@H](CCCNC(=N)N)NC(=O)[C@H](Cc1c[nH]c(-c2ccc(-c3ccccc3)cc2)n1)NC(=O)OC(C)(C)C
Output: > 2

Task: Here is the next compound: Cc1ccc(-c2nc(C[C@H](NC(=O)[C@@H](N)Cc3c[nH]c4ccccc34)C(=O)NCc3ccccc3)c[nH]2)cc1
Output: > 1.3

Task: Here is the next compound: N[C@@H](Cc1c[nH]c2ccccc12)C(=O)N[C@@H](Cc1c[nH]c(-c2ccc(-c3ccccc3)cc2)n1)C(=O)NCc1ccccc1
Output: > 18.5

Task: Here is the next compound: N=C(N)NCCC[C@H](NC(=O)[C@@H](N)Cc1c[nH]c(-c2ccc(-c3ccccc3)cc2)n1)C(=O)NCc1ccccc1
Output: > 50

Task: Here is the next compound: Cc1ccc(-c2nc(C[C@H](N)C(=O)N[C@@H](CCCNC(=N)N)C(=O)NCc3ccccc3)c[nH]2)cc1
Output: > 4.7

Task: Here is the next compound: Cc1ccc(-c2nc(C[C@H](NC(=O)OC(C)(C)C)C(=O)N[C@@H](CCCNC(=N)N)C(=O)NCc3ccccc3)c[nH]2)cc1
Output: > 1.7

Task: Here is the next compound: CC(C)(C)OC(=O)N[C@@H](Cc1c[nH]c(-c2ccc(C(C)(C)C)cc2)n1)C(=O)N[C@@H](CCCNC(=N)N)C(=O)NCc1ccccc1
Output: > 4.1

Task: Here is the next compound: COC(=O)[C@H](Cc1c[nH]c(-c2ccccc2)n1)NC(=O)[C@@H](N)Cc1c[nH]c2ccccc12
Output: > 1.3

Task: Here is the next compound: N=C(N)NCCC[C@H](NC(=O)[C@@H](N)Cc1c[nH]c(-c2cccc3ccccc23)n1)C(=O)NCc1ccccc1
Output: > 16.1

Task: Here is the next compound: COC(=O)[C@H](CCCNC(=N)N)NC(=O)[C@H](Cc1c[nH]c(-c2cccc3ccccc23)n1)NC(=O)OC(C)(C)C
Output: > 8

Task: Here is the next compound: COc1ccc(-c2nc(C[C@H](NC(=O)OC(C)(C)C)C(=O)N[C@@H](CCCNC(=N)N)C(=O)NCc3ccccc3)c[nH]2)cc1
Output: > 1.7

Task: Here is the next compound: CC(C)(C)c1ccc(-c2nc(C[C@H](N)C(=O)N[C@@H](CCCNC(=N)N)C(=O)NCc3ccccc3)c[nH]2)cc1
Output: > 62.5

Task: Here is the next compound: COC(=O)[C@H](Cc1c[nH]c(-c2ccc(-c3ccccc3)cc2)n1)NC(=O)[C@@H](N)Cc1c[nH]c2ccccc12
Output: > 2.6
